Overview of recorded kon for various binders
# MEASURED_ON: canine FcRn/B2M protein complex (canine FcRn ECD with C-terminal poly-His tag and canine Beta-2-Microglobulin) (canine)
# ASSAY_SUMMARY: SPR Biacore 8K, pH 6.0, 25 C; Fc captured by SASA tag on BSA chip, FcRn/B2M 400 nM as analyte
Output spec: scalar in M⁻¹ s⁻¹, unitless text.

Completed entries (count: 2):
BINDER	QUANTITY_UNIT	REPORTED_VALUE
wild-type canine IgG-B Fc polypeptide (protein, not shown: small tags and cut ends) CPAPEMLGGPSVFIFPPKPKDTLLIARTPEVTCVVVDLDPEDPEVQISWFVDGKQMQTAKTQPREEQFNGTYRVVSVLPIGHQDWLKGKQFTCKVNNKALPSPIERTISKARGQAHQPSVYVLPPSREELSKNTVSLTCLIKDFFPPDIDVEWQSNGQQEPESKYRTTPPQLDEDGSYFLYSKLSVDKSRWQRGDTFICAVMHEALHNHYTQESLSHSPGK	M⁻¹ s⁻¹	838000
variant canine IgG-B Fc polypeptide 0YW (Gln83Tyr, Asn208Trp) (protein, not shown: small tags and cut ends) CPAPEMLGGPSVFIFPPKPKDTLLIARTPEVTCVVVDLDPEDPEVQISWFVDGKQMQTAKTQPREEQFNGTYRVVSVLPIGHYDWLKGKQFTCKVNNKALPSPIERTISKARGQAHQPSVYVLPPSREELSKNTVSLTCLIKDFFPPDIDVEWQSNGQQEPESKYRTTPPQLDEDGSYFLYSKLSVDKSRWQRGDTFICAVMHEALHWHYTQESLSHSPGK	M⁻¹ s⁻¹	348000

Would you kindly look at the next entry?
Q: // Input: variant canine IgG-B Fc polypeptide Y0F (Leu24Tyr, Asn208Phe) (protein, not shown: small tags and cut ends) CPAPEMLGGPSVFIFPPKPKDTLYIARTPEVTCVVVDLDPEDPEVQISWFVDGKQMQTAKTQPREEQFNGTYRVVSVLPIGHQDWLKGKQFTCKVNNKALPSPIERTISKARGQAHQPSVYVLPPSREELSKNTVSLTCLIKDFFPPDIDVEWQSNGQQEPESKYRTTPPQLDEDGSYFLYSKLSVDKSRWQRGDTFICAVMHEALHFHYTQESLSHSPGK . Output its kon only.
A: 281000
